experimental_parameters: in ethyl acetate, 273.15 K
readout_type: solubility (mole fraction)

compound_smiles | result_number
FC(F)(F)c1cccnc1Cl | 0.399

====

experimental_parameters: in ethyl acetate, 283.15 K

compound_smiles | solubility (mole fraction)
FC(F)(F)c1cccnc1Cl | 0.508

====

experimental_parameters: in n-butanol, 288.15 K
readout_type: solubility (mole fraction)

compound_smiles | result_number
FC(F)(F)c1cccnc1Cl | 0.284
